System: Rattus norvegicus
protocol.details: Tested for lowering of serum prolactin level in reserpinized rat after i.p. administration at dosage of 0.5 mg/kg
Type: functional
experimental.conditions: route intraperitoneal
Listing of entries alongside the reported Serum level.
Numbers only here, please. The scale is ng/mL.

CCCN(CCC)C1Cc2cccc3[nH]cc(c23)C1.O=C(O)C(=O)O (stereo not given)	18.9
CCCN(CCC)C1CCc2n[nH]cc2C1.Cl.Cl (stereo not given)	10.6
CN1CCC[C@@H]2Cc3n[nH]cc3CC21.Cl.Cl (stereo not given in full)	18.5

[in] Name the reported Serum level value associated with the compound CN1CCC[C@@H]2Cc3c[nH]cc3CC21.O=C(O)/C=C\C(=O)O (stereo not given in full)
[out] 30.9

[in] Name the reported Serum level value associated with the compound CCCN(CCC)C1CCc2c[nH]cc2C1.O=C(O)/C=C\C(=O)O (stereo not given)
[out] 36.1

---

Tested on: Rattus norvegicus
protocol.details: Dopaminergic activity causing prolactin inhibition in reserpinized rat after i.p. administration at dosage of 5.0 mg/kg
Type: functional
experimental.conditions: ip, route intraperitoneal
quantity: inhibition in vivo at 5 mg/kg
# include the unit after the value

Example entries begin here.
Cl.Cl.c1[nH]nc2c1CC1NCCC[C@@H]1C2 (stereo partly specified)	20%
NC1CCc2c[nH]cc2C1 (stereo unspecified)	24%
CN(C)C1Cc2cccc3[nH]cc(c23)C1.O=C(O)C(=O)O (stereo unspecified)	91%
CCCN(CCC)C1CCc2c[nH]cc2C1.O=C(O)/C=C\C(=O)O (stereo unspecified)	93%
CN1CCC[C@@H]2Cc3c[nH]cc3CC21.O=C(O)/C=C\C(=O)O (stereo partly specified)	90%

Here is the next item to consider.
[in] Name the reported inhibition in vivo at 5 mg/kg value associated with the compound CCCN1CCC[C@@H]2Cc3c[nH]cc3CC21.O=C(O)/C=C\C(=O)O (stereo partly specified)
[out] 95%

---

Test system: Rattus norvegicus
protocol.details: Dopaminergic activity causing prolactin inhibition in reserpinized rat after i.p. administration at dosage of 5.0 mg/kg
Assay type: functional
experimental.conditions: ip, route intraperitoneal
Hi, to clarify the labels: Yes covers inhibition in vivo at 5 mg/kg from 90% upward, No covers anything below 90%.

Please review the entries below; each comes with its answer.
CN1CCC[C@@H]2Cc3n[nH]cc3CC21.Cl.Cl (some centres not stated)	No
Cl.Cl.NC1CCc2n[nH]cc2C1 (configuration not stated)	No
CCCN(CCC)C1CCc2n[nH]cc2C1.Cl.Cl (configuration not stated)	Yes

[in] Evaluate CCCN(CCC)C1Cc2cccc3[nH]cc(c23)C1.O=C(O)C(=O)O (configuration not stated) : inhibition in vivo at 5 mg/kg at minimum 90%?
[out] Yes

[in] Evaluate CN(C)C1CCc2n[nH]cc2C1.Cl.Cl (configuration not stated) : inhibition in vivo at 5 mg/kg at minimum 90%?
[out] No

[in] Evaluate CCN(CC)C1CCc2c[nH]cc2C1.O=C(O)/C=C\C(=O)O (configuration not stated) : inhibition in vivo at 5 mg/kg at minimum 90%?
[out] No

---

Listing of entries alongside the reported Inhibition.
Tested on: Rattus norvegicus
protocol.details: Control Serum prolactin level in reserpinized rat after i.p. administration at dosage of 0.05 mg/kg
Type: functional
experimental.conditions: route intraperitoneal
Numbers only here, please. The scale is ng/mL.

Example entries begin here.
CN(C)C1Cc2cccc3[nH]cc(c23)C1.O=C(O)C(=O)O (stereo unspecified)	36.4
CCCN1CCC[C@@H]2Cc3c[nH]cc3CC21.O=C(O)/C=C\C(=O)O (stereo partly specified)	49.5
CCCN(CCC)C1CCc2c[nH]cc2C1.O=C(O)/C=C\C(=O)O (stereo unspecified)	59.8
CN(C)C1CCc2n[nH]cc2C1.Cl.Cl (stereo unspecified)	59.8
CCCN(CCC)C1Cc2cccc3[nH]cc(c23)C1.O=C(O)C(=O)O (stereo unspecified)	46.1

[in] Under Rattus norvegicus: Inhibition value of CN1CCC[C@@H]2Cc3n[nH]cc3CC21.Cl.Cl (stereo partly specified) ?
[out] 31.7
